- Tested on: MT4
- PROTOCOL DESCRIPTION: Cytotoxicity against human MT4 cells after 5 days by MTT assay
- Format: cell-based
- CONDITIONS: mt4, 120 h
Catalogue of CC50 readings, one per entry.
PROPERTY LABEL: CC50

Cc1cc(C#N)cc(C)c1Oc1nc(NC2CCN(Cc3ccc(S(N)(=O)=O)cc3)CC2)nc2c1CCCC2 | > 228 µM
Cc1cc(C#N)cc(C)c1Oc1nc(NC2CCN(Cc3ccc(S(N)(=O)=O)cc3)CC2)nc2c1CCC2 | > 234 µM
Cc1cc(C#N)cc(C)c1Oc1nc(NC2CCN(Cc3ccncc3)CC2)nc2c1CCC2 | > 274 µM
Cc1cc(C#N)cc(C)c1Oc1nc(NC2CCN(Cc3ccc(S(C)(=O)=O)cc3)CC2)nc2c1CCCC2 | > 266 µM
Cc1cc(C#N)cc(C)c1Oc1nc(NC2CCN(Cc3ccc(N)cc3)CC2)nc2c1CSC2 | > 257 µM
Cc1cc(C#N)cc(C)c1Oc1nc(NC2CCN(Cc3ccc(C(N)=O)cc3)CC2)nc2c1CCCC2 | > 233 µM
Cc1cc(C#N)cc(C)c1Oc1nc(NC2CCN(Cc3ccc(S(N)(=O)=O)cc3)CC2)nc2c1SCCC2 | ≥ 148 µM
Cc1cc(C#N)cc(C)c1Oc1nc(NC2CCN(Cc3ccc(S(C)(=O)=O)cc3)CC2)nc2c1SCCC2 | ≥ 3.4 µM
